REPORTED PROPERTY: melting point

I am curious: what melting point value has been reported for O=C(O)c1cc2c(-c3cccs3)nccc2[nH]c1=O ?
278 °C

Given C[Si](C)(C)OC(Cn1ccnc1)(Cn1ccnc1)c1ccc(F)cc1F , state its recorded melting point.
134 to 136 °C

====

Measured melting point values are reported for all entries that follow.

Some solved cases for reference:
COMPOUND: CC(=O)c1ccc(F)c(COc2ccc(S(=O)(=O)c3ccc(C)nc3Nc3c(C)cc(C)cc3C)cc2)c1
melting point: 141 to 143 °C

COMPOUND: CNC(=O)Cc1c(C(=O)c2ccccc2)[nH]c2cc(Cl)ccc12
melting point: 242 to 246 °C

COMPOUND: CCCCc1nc2c(N)nc3cc(C)ccc3c2o1
melting point: 187 to 188 °C

COMPOUND: CC(C)(C)OC(=O)N1CCN(c2ccc(NC(=O)Nc3nc(C(C)(C)C)cs3)cc2)CC1
melting point: 123 to 124 °C

Bench note: what melting point did CCCCCCCCCCCCCCCCSCC(CNS(=O)(=O)CCCI)NC(C)=O (stereo not given) show?
75 to 76 °C

I have this compound here, Cn1nc2c(N)nc3c(c2c1CC(C)(C)O)CCCC3 , and I need its recorded melting point.
228 to 234 °C

Suppose we examine the compound COc1cc2nc(N3CCN(C(=O)C4CC4)CC3)nc(N)c2cc1OC ; what melting point value has been reported?
284 to 286 °C

Origin of values: a melting point compilation (Tetko et al.; mined from patent text by program, amines drawn as free bases though some values may be those of a salt)
